Target: T1, human SLC34A2 (human, UniProt O95436 1-690)
T1 construct: whole, on cells; also called human solute carrier 34 A2; NaPi2b
T1 sequence (looked up): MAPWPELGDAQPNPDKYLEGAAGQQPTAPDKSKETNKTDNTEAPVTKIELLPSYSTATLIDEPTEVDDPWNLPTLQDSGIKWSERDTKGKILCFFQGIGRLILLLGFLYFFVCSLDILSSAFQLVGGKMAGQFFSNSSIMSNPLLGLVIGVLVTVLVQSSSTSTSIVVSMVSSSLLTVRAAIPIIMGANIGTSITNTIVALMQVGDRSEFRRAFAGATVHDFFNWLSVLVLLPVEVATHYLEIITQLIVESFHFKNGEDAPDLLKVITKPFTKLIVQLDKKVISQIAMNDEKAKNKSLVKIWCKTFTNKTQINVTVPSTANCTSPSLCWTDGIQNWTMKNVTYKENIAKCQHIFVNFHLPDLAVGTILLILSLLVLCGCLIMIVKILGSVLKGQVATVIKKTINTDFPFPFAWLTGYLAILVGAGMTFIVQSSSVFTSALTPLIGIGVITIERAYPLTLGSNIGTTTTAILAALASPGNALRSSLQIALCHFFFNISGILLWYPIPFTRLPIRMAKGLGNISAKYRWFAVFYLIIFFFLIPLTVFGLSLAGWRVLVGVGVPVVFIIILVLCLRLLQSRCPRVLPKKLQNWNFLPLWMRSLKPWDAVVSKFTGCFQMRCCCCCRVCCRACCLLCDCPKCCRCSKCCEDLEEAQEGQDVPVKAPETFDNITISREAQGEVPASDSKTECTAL
Assay: FACS, OVCAR3 cells
Kindly supply the reported Top (MFI) values for the records listed here.
Note: unit MFI is implicit; provide only the numeric part.

// Top (MFI) lookup, key: 91C9F1.p1 hIgG1 (antibody, V domains shown, PTM-derisked chimeric, hIgG1; also called 91C9F1.pl hIgG1) VH: EVQLQQSGPELVKPGTSVKISCKTSGFFFTEYIIHWVKQSHGRSLEWIGGIIPNNDVTNYKQNFRGKAALTADKSSNTAYMELRSLTSEDSAVYYCARWRNAYYSAMDSWGQGTSVTVSS VL: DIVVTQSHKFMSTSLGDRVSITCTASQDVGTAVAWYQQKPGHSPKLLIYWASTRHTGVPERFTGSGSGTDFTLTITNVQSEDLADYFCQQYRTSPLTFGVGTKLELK 32300

Need Top (MFI) of 91C9F1.p1.z1 hIgG1 (antibody, V domains shown, humanized hIgG1) VH: QVQLVQSGAEVKKPGSSVKVSCKASGFFFTEYIIHWVRQAPGQGLEWMGGIIPNNDVTNYKQNFRGRVTITADESTSTAYMELSSLRSEDTAVYYCARWRNAYYSAMDSWGQGTTVTVSS VL: DIQMTQSPSSLSASVGDRVTITCTASQDVGTAVAWYQQKPGKVPKLLIYWASTRHTGVPSRFSGSGSGTDFTLTISSLQPEDVATYYCQQYRTSPLTFGGGTKVEIK , thanks. 34200

For 91C9F1.p1.z2 hIgG1 (antibody, V domains shown, humanized hIgG1) VH: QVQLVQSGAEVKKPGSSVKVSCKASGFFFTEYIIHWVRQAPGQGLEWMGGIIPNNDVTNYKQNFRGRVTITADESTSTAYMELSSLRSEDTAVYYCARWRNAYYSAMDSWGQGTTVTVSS VL: DIQMTQSPSSLSTSVGDRVTITCTASQDVGTAVAWYQQKPGKSPKLLIYWASTRHTGVPERFSGSGSGTDFTLTISSLQPEDVATYFCQQYRTSPLTFGGGTKVEIK , what is its reported Top (MFI)? 34500

Which Top (MFI) reading was recorded for the binder 91C9F1.p1.z9 hIgG1 (antibody, V domains shown, humanized hIgG1) VH: QVQLVQSGAEVVKPGSSVKVSCKTSGFFFTEYIIHWVRQSPGQGLEWIGGIIPNNDVTNYKQNFRGRATLTADKSTSTAYMELSSLRSEDTAVYYCARWRNAYYSAMDSWGQGTTVTVSS VL: DIQMTQSPSSLSASVGDRVTITCTASQDVGTAVAWYQQKPGKVPKLLIYWASTRHTGVPSRFSGSGSGTDFTLTISSLQPEDVATYYCQQYRTSPLTFGGGTKVEIK ? 37000

Which Top (MFI) reading was recorded for the binder 91C9F1.p1.z14 hIgG1 (antibody, V domains shown, humanized hIgG1) VH: QVQLVQSGAEVVKPGSSVKISCKTSGFFFTEYIIHWVKQSPGQGLEWIGGIIPNNDVTNYKQNFRGRATLTADKSTNTAYMELRSSLRSEDTAVYYCARWRNAYYSAMDSWGQGTTVTVSS VL: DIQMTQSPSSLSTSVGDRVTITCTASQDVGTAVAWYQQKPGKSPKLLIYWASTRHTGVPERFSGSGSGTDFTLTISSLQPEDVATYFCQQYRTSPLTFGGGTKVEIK ? 36200
